# procedure_summary: Half life in CD1 mouse at 5 mg/kg, iv
# Type: ADME, organism-based
# Parameters: dose 5 mg/kg, route intravenous
# details: in vivo
experimental_endpoint: half-life

input: Using the record for CC(=O)N1N=C(c2cc(F)ccc2F)S[C@@]12c1ccccc1OC[C@H]2CCN , state its measured half-life.
output: 1.8 h

###

# procedure_summary: Cmax in Sprague-Dawley rat at 50 mg/kg, po
# Type: ADME, organism-based
# Set-up: dose 50 mg/kg, route oral
# details: in vivo
experimental_endpoint: Cmax (nM)
Field: numeric (nM). Do not append units.

input: Supply recorded Cmax for CC(=O)N1N=C(c2cc(F)ccc2F)S[C@@]12c1ccccc1OC[C@H]2CCN here.
output: 600

###

# procedure_summary: Clearance in beagle dog at 1 mg/kg, iv
# Assay type: ADME, organism-based, Canis lupus familiaris
# Set-up: dose 1 mg/kg, route intravenous
# details: in vivo
experimental_endpoint: clearance (mL/min/kg)
Could you give me the number in mL/min/kg? Just the number is fine.

Examples with answers:
CC(=O)N1N=C(c2cc(F)ccc2F)S[C@@]12c1ccccc1OC[C@H]2CCN 13.7
CC(=O)N1N=C(c2cc(F)ccc2F)S[C@@]12c1cc(F)cc(F)c1OC[C@H]2CCN 20

// moving on: another record for clearance
input: Give the reported value of clearance for this record: CC(=O)N1N=C(c2cc(F)ccc2F)S[C@@]12c1cc(F)c(F)cc1OC[C@H]2CCN
output: 12

###

A collection of compounds and their measured Cmax
# procedure_summary: Cmax in beagle dog at 5 mg/kg, po
# Assay type: ADME, organism-based, Canis lupus familiaris
# Design: dose 5 mg/kg, route oral
# details: in vivo
Answer in nM, number only, no unit symbol.

CC(=O)N1N=C(c2cc(F)ccc2F)S[C@@]12c1cc(F)cc(F)c1OC[C@H]2CCN 200

input: Please give the documented Cmax of CC(=O)N1N=C(c2cc(F)ccc2F)S[C@@]12c1ccccc1OC[C@H]2CCN
output: 300

###

# procedure_summary: AUC ratio of drug uptake from brain to plasma in rat
# Format: ADME
experimental_endpoint: Kp
No unit in the answer, only the number.

input: Please report the measured Kp for CC(=O)N1N=C(c2cc(F)ccc2F)S[C@@]12c1cc(F)c(F)cc1OC[C@H]2CCN
output: 4

###

Listing of entries alongside the reported clearance.
# procedure_summary: Clearance in CD1 mouse at 5 mg/kg, iv
# Type: ADME, organism-based
# Design: dose 5 mg/kg, route intravenous
# details: in vivo
Unit mL/min/kg implied. Number only.

CC(=O)N1N=C(c2cc(F)ccc2F)S[C@@]12c1ccccc1OC[C@H]2CCN 90
CC(=O)N1N=C(c2cc(F)ccc2F)S[C@@]12c1cc(F)ccc1OC[C@H]2CCN 76
CC(=O)N1N=C(c2cc(F)ccc2F)S[C@@]12c1cc(F)cc(F)c1OC[C@H]2CCN 29
CC(=O)N1N=C(c2cc(F)ccc2F)S[C@@]12c1cccc(F)c1OC[C@H]2CCN 136

// moving on: another record for clearance
input: Tell us which clearance value is on record for CC(=O)N1N=C(c2cc(F)ccc2F)S[C@@]12c1cc(F)c(F)cc1OC[C@H]2CCN
output: 42

###

# procedure_summary: Volume of distribution at steady state in CD1 mouse at 5 mg/kg, iv
# Type: ADME, organism-based
# Design: dose 5 mg/kg, route intravenous
# details: in vivo, read-out: Vdss
experimental_endpoint: Vd (L/kg)
Unit L/kg implied. Number only.

input: Read the entry CC(=O)N1N=C(c2cc(F)ccc2F)S[C@@]12c1ccccc1OC[C@H]2CCN and write its reported Vd.
output: 6.4
